Tested on: SF-295 CNS
method description: NCI-60 one-dose screen, 48 h
experimental parameters: 10 µM unless noted
About 83,000 compounds went through this panel and 20% of them were active in at least one assay; those are over-represented in the sample as a whole. Active and inactive are the calls of the source. How the source made its calls: active means growth percent below 10; inactive means the rest.
Outcome codes: active, inactive

INSERT INTO measurements (compound, class_label) VALUES
  ('COCCn1cc(-c2nc(-c3cc4cccnc4n3C)cs2)c2cc(OC)ccc21', 'inactive'),
  ('COC(=O)c1cc(-c2cc(OC)c(OC)c(OC)c2)[nH]c1N/N=C/c1c(Cl)cccc1Cl', 'active'),
  ('CSc1nc(N)c2c(n1)NC(c1ccccc1)C1CCc3ccccc3C1=N2 (stereo unspecified)', 'inactive'),
  ('C=C1C(=O)O[C@H]2[C@H]1CC/C(CNC(=O)/C=C/c1cc(OC)c(OC)c(OC)c1)=C\CC[C@@]1(C)O[C@@H]21', 'inactive'),
  ('COC(=O)c1ccc(-n2cc(CCCOS(=O)(=O)c3ccc(F)cc3)nn2)cc1', 'inactive'),
  ('O=[N+]([O-])c1ccc(N/N=C\c2cc(Cl)ccc2O)nc1', 'inactive');

----------
Tested on: A498 renal
method description: NCI-60 one-dose screen, 48 h (100 = growth as untreated, 0 = no growth, -100 = all killed)
experimental parameters: 10 µM unless noted
Compounds without any hit were thinned out: in the full panel of roughly 83,000, 20% have a hit. The source made the active and inactive calls. How the source made its calls: active means growth percent below 10; inactive means the rest.
experimental endpoint: growth

INSERT INTO measurements (compound, experimental_endpoint, measured_result) VALUES
  ('CN1C(=O)N(C)C2C1NN=c1s/c(=C\c3ccc(F)cc3)c(=O)n12 (stereo not given)', 'growth', '9.72% (active)'),
  ('COC(=O)c1nc(-c2ccccc2)oc1S(=O)(=O)NCC(c1ccc(Cl)cc1)N1CCCCC1 (stereo not given)', 'growth', '96.4% (inactive)'),
  ('CCOc1cc(\C=N/N=C(N)/C(N)=N\N=C/c2ccc(O)c(OCC)c2)ccc1O', 'growth', '106% (inactive)'),
  ('CCCCCN(CCCCC)CC(O)c1c(Cl)ccc2ccccc12 (stereo not given)', 'growth', '68.3% (inactive)'),
  ('COc1ccc(/C=N/NC(=O)Cn2nnc3ccccc32)cc1', 'growth', '98.4% (inactive)'),
  ('CCOC(=O)c1c(C)n2c(=O)cc(C)c3c(OC(C)=O)c(OC(C)=O)cc1c32', 'growth', '116% (inactive)'),
  ('Cc1nc2ccccc2c(/C=C/c2ccc(Cl)cc2)c1C(=O)/C=C/c1ccccc1', 'growth', '44% (inactive)'),
  ('CCCCCCCC/C=C\CCCCCCCCOc1ccc(CC(=O)NCC[N+]2(C)CCCC2)cc1', 'growth', '86.4% (inactive)'),
  ('CCC(C)C(N)C(=O)NC(CC(C)C)C(=O)N1CCCC1C(=O)NC(Cc1c[nH]c2ccccc12)C(=O)NC(CCCCN)C(=O)NC(Cc1c[nH]c2ccccc12)C(=O)N1CCCC1C(=O)NC(Cc1c[nH]c2ccccc12)C(=O)NC(Cc1c[nH]c2ccccc12)C(=O)N1CCCC1C(=O)NC(Cc1c[nH]c2ccccc12)C(=O)NC(CCCNC(=N)N)C(=O)NC(CCCNC(=N)N)C(N)=O (stereo not given)', 'growth', '130% (inactive)'),
  ('COc1cc2c(c(OC)c1OC)C(=O)CC(c1cccc(C(=O)Nc3ccc(Br)cc3)c1)O2 (stereo not given)', 'growth', '40.3% (inactive)'),
  ('Nc1ncc(-c2ccc3ncnc(N4CCc5cc(F)c(Cl)cc54)c3c2)cc1C(F)(F)F', 'growth', '-50.2% (active)'),
  ('CCOC(=O)c1c(C)c2c(n1Cc1ccccc1)CSc1cc(C#N)c(=O)[nH]c1-2', 'growth', '92% [100 µM] (inactive)'),
  ('COc1ccc(Nc2nccc(Nc3ccc4[nH]ncc4c3)n2)cc1', 'growth', '36.5% (inactive)'),
  ('COC(=O)CNC(=O)c1ccc(NC(=O)c2[nH]c(C)c(Cl)c2Cl)c(O[C@H]2CCNC2)c1', 'growth', '89.9% (inactive)'),
  ('CN(C)CC1C(=O)O[C@H]2[C@H]1CC/C(COC(=O)NCc1ccc(Cn3c(=O)sn(CCCI)c3=O)cc1)=C\CC[C@@]1(C)O[C@@H]21 (stereo not given in full)', 'growth', '105% (inactive)'),
  ('COc1ccc(C2CC(=O)Oc3c(OC)c4c(c(OC)c32)OCO4)cc1 (stereo not given)', 'growth', '88.7% (inactive)'),
  ('CCN(CC)CCCNc1cc(OC)cc2cccnc12', 'growth', '81.5% (inactive)'),
  ('COc1ccc(Cn2cc(C(=O)N=Nc3c(O)[nH]c4ccc(Br)cc34)nn2)cc1', 'growth', '97.1% (inactive)'),
  ('CC(C)(C)n1cc(-c2ccnc(NCCNS(=O)(=O)c3ccc(C(F)(F)F)cc3)c2)c(-c2ccccc2)n1', 'growth', '61.7% (inactive)'),
  ('NC(=O)[C@@H]1Cc2ccccc2CN1C(=O)c1ccc2c(c1)Cc1ccccc1-2', 'growth', '89.2% (inactive)'),
  ('O=C(Nc1ncc(Cc2ccc(Cl)cc2)s1)c1ccc2c(c1)OCCO2', 'growth', '-2.66% (active)'),
  ('O=C(O)/C=C/c1cn(-c2ccccc2)nc1-c1ccc(F)cc1', 'growth', '76.1% (inactive)'),
  ('Clc1ccc2c(NCCCn3cnc4c(N5CCCC5)nc(Cl)nc43)ccnc2c1', 'growth', '94.4% (inactive)'),
  ('C#CC#CC#CC#CC#CC#CC#CC#CC[C@@H]1OC[C@H](COC(=O)O[C@@H](C(=O)O[C@H]2C[C@@]3(O)[C@@H](OC(=O)c4ccccc4)[C@@H]4[C@]5(OC(C)=O)CO[C@@H]5C[C@H](O)[C@@]4(C)C(=O)[C@H](OC(C)=O)C(=C2C)C3(C)C)[C@@H](NC(=O)c2ccccc2)c2ccccc2)O1', 'growth', '21.3% (inactive)'),
  ('CN1CC(c2ccccc2)C(C(=O)c2ccc(Br)cc2)C12C(=O)Nc1ccccc12 (stereo not given)', 'growth', '105% (inactive)'),
  ('COc1ccc(NC(=O)c2sc3nc(C)c(C(=O)c4ccccc4)cc3c2N)cc1', 'growth', '-9.31% (active)'),
  ('COc1ccc(/C=C2/CCc3cc4ccc(OC)cc4[o+]c32)c(O)c1', 'growth', '94.9% (inactive)'),
  ('COc1cccc(C2C3=C(COC3=O)N(CCO)c3cc4c(cc32)OCCO4)c1 (stereo not given)', 'growth', '-21.8% (active)'),
  ('Oc1ccc(Cc2ccc(O)c3ncccc23)c2cccnc12', 'growth', '5.58% (active)'),
  ('CO[C@H]1/C=C/O[C@@]2(C)Oc3c(C)c(O)c4c(O)c(c5c(nc6cc(C)ccn65)c4c3C2=O)NC(=O)/C(C)=C\C=C\[C@H](C)[C@H](O)[C@@H](C)C(O)[C@@H](C)[C@H](OC(C)=O)[C@@H]1C (stereo not given in full)', 'growth', '134% (inactive)');

----------
System: UACC-62 melanoma
method description: NCI-60 one-dose screen, 48 h
experimental parameters: 10 µM unless noted
This is part of a sample that, as a whole, favours compounds with a hit. Of some 83,000 tested, about 20% had one in any assay. The source made the active and inactive calls. How the source made its calls: active means growth percent below 10; inactive means the rest.
Outcome codes: True = active, False = inactive

INSERT INTO results (compound, class_label) VALUES
  ('CC1=C(C(=O)OCc2ccccc2)C(c2ccc3c(c2)OCO3)n2c(nc3ccccc32)N1 (stereo unspecified)', 'False'),
  ('O=C(Nc1ccc(Cl)cc1)C1=NCCCCN1', 'False'),
  ('O=c1ccc2c(ccc3ncccc32)o1', 'False'),
  ('CC/C(=C(/c1ccc(Cl)cc1)c1ccc(OCCN(CC)CC)cc1)c1ccc(OC)cc1', 'False'),
  ('O=C(CN1C(=O)c2ccccc2S1(=O)=O)Nc1nc(-c2cc3ccccc3oc2=O)cs1', 'False'),
  ('CCN1C(=O)N(CC)C2C1NN=c1s/c(=C\c3ccccc3)c(=O)n12 (stereo unspecified)', 'False'),
  ('CC1(C)CC(=O)C2=C(C1)OC(C(=O)c1ccccc1)C2c1cccc(Oc2ccccc2)c1 (stereo unspecified)', 'False'),
  ('CN(CCNc1ccc(C(=N)N)cc1)c1ccc(C(=N)N)cc1', 'False'),
  ('CCCCCCCCOC(=O)c1c(C)[nH]c(/C=C2\N=C(c3ccc[nH]3)C=C2OC)c1C', 'True'),
  ('O=C(CSc1nc(-c2ccccc2)cn1-c1ccc(Cl)cc1)c1ccc([N+](=O)[O-])cc1', 'False'),
  ('COc1cc2nc3cc([N+](=O)[O-])ccc3c(NCCCNCCO)c2cc1OC', 'True'),
  ('CCOC(=O)c1ccc2c(c1)[n+](=O)c(C(C)=O)c(C(F)(F)F)n2[O-]', 'True'),
  ('CCCCCCCCCCCCCCCCCCOc1ccccc1CC(=O)OCC[N+]1(C)CCCCC1', 'False'),
  ('CC1(C)CC[C@]2(CO)CC[C@]3(C)C(=CC[C@@H]4[C@@]5(C)CCNCC(C)(C)[C@@H]5CC[C@]43C)[C@@H]2C1', 'False'),
  ('c1ccc(Cn2cc3c(c2)-c2nc(Nc4ccccc4)ncc2CC3)cc1', 'False'),
  ('Cc1cc(C)n(C(=O)CSc2nc3sc4c(c3c(=O)n2-c2ccccc2)CCCCC4)n1', 'False'),
  ('CC(C)(C#N)c1cc(C(=O)Nc2cc(Nc3ncccc3-c3ncnc4nc[nH]c34)ccc2F)cc(C(F)(F)F)c1', 'True'),
  ('Cc1c(Cl)cccc1NC(=O)c1sc2nc3c(cc2c1N)CCCC3', 'False'),
  ('CC(=O)/C(Br)=C/c1ccc(Br)o1', 'False'),
  ('O=C1C2C(c3cccs3)C=C(c3ccc(Cl)cc3)N2C(=S)N1c1ccccc1 (stereo unspecified)', 'False'),
  ('COc1cc2cc(Oc3ccc(NC(=O)Nc4ccc(Cl)c(Cl)c4)cc3)c(C)nc2cc1OCCN1CCCCC1', 'False'),
  ('C=CCn1c(SCC(=O)Nc2ccc(C(=O)/C=C/c3cc(OC)c(OC)c(OC)c3)cc2)nnc1-c1cc(-c2ccc(S(N)(=O)=O)cc2)nc2ccccc12', 'False'),
  ('CCOC(=O)CC1CSC(N/N=C(/C)c2cccc(C(F)(F)F)c2)=N1 (stereo unspecified)', 'False'),
  ('COc1cccc(NC(=O)c2sc3nc(C)c(C(=O)c4ccccc4)cc3c2N)c1', 'False'),
  ('CCOC(=O)C1=CCC(n2cc(F)c(=O)[nH]c2=O)O1 (stereo unspecified)', 'False'),
  ('c1ccc(-c2cn3nc(-c4c[nH]c5ccccc45)sc3n2)cc1', 'False'),
  ('Cc1ccc2c(n1)C[C@H](C(C)(C)O)CC[C@H]2C', 'False'),
  ('Cc1nn(-c2ccccc2)c(Oc2ccccc2)c1/C=N/NC(=O)Cn1c(=O)sc2ccccc21', 'False'),
  ('Oc1cccc2c1NCCC2', 'True'),
  ('CCOc1ccc(N2C(=O)CCSC2=S)cc1', 'False'),
  ('CCN(CC)CCN1C(=O)c2c(c(C)c3c(oc4cc(OC)ccc43)c2C)C1=O', 'False');
